- Test system: HS 578T breast
- Assay summary: NCI tumour cell line growth inhibition, 48 h
Measure: TGI (µM)

1) COc1cc(OC)cc(-c2n/c(=C\c3c(O)[nH]c4ccc(Cl)cc34)cc3c2=Nc2ccccc2-3)c1 :: 62.4
2) Cc1ccc(S(=O)(=O)c2ccc([N+](=O)[O-])o2)cc1 :: 13.4
3) N=C(N)SCCCN :: 43.5
4) O=c1[nH]c2cc3cccnc3c(Cl)c2nc1CBr :: 28.3

----------
- Test system: A498 renal
- Assay summary: NCI tumour cell line growth inhibition, 48 h
Label scheme for TGI: lower than 3 µM is No, 3 µM and above is Yes.

1) COC1(C)C(=O)N2C1N(C(=O)OCc1ccccc1)CC2(C)C (configuration not stated) :: Yes
2) N#Cc1c(Nc2nc3ccccc3s2)c2ccccc2n2c1nc1ccccc12 :: Yes
3) Brc1cccc(-c2cc(-c3ccc4nccnc4c3)[nH]n2)c1 :: No
4) OCc1ccc(N2CCCC2)cc1Cl :: No
5) COC(=O)/C(=C\c1ccco1)P(=O)(OC)OC :: Yes
6) CC(=O)c1ccc(N2CCN(C3=CC(=O)c4c(O)ccc(O)c4C3=O)CC2)cc1 :: Yes
7) ONC1=Nc2ccccc2OCc2cc(Br)c(Br)cc2COc2ccccc2N=C1NO :: Yes
8) CC1=C(C(=O)Nc2ccc(F)c(Cl)c2)C(c2ccccc2O)NC(=O)N1 (configuration not stated) :: Yes
9) CSc1ncc2c(n1)-c1ccccc1OC2NC(C)(C)C (configuration not stated) :: Yes
10) N/C(=N\c1nc2ccccc2s1)NC(=NC1CCCCC1)NC1CCCCC1 :: Yes
11) CCOC(=O)/C(C#N)=C(/NNc1ccccc1)c1ccncc1C(=O)O :: Yes
12) COc1cc(/C=C2\Cc3cc(OC)c(OC)cc3C2=O)cc(OC)c1 :: Yes

----------
- Tested on: CCRF-CEM leukemia
- Assay summary: NCI tumour cell line growth inhibition, 48 h
Measure: TGI (µM)

1. COc1ccc(Cc2nc3ccccc3s2)cc1OC :: 44.7
2. O=c1[nH]cnc2sc(=S)c3c(c12)CCC3 :: 49
3. OC(CCN1CCN(CCOC(c2ccccc2)c2ccccc2)CC1)c1ccc(Br)cc1 (stereo unspecified) :: 45.3
4. O=[N+]([O-])c1ccc2c(Nc3ccccc3-c3ccccc3Nc3c4ccccc4nc4cc([N+](=O)[O-])ccc34)c3ccccc3nc2c1 :: 37.6
5. O=C1CSC(c2ccccc2O)N1c1nnc(Cn2ccnc2)o1 (stereo unspecified) :: 52.9
6. CC(=O)O.CC(=O)O.CC(=O)O.CC(=O)O.[Rh].[Rh] :: 20.3
7. N/C(=N\c1nc2ccccc2s1)NC(=NC1CCCCC1)NC1CCCCC1 :: 9.28
8. O=C(/C=C(\O)c1ccccc1)/C(=C/C(=O)c1ccccc1)NN=C(c1ccccc1)c1ccccc1 :: 54.7
9. Nc1cc2cccc[n+]2c2cccc(Cl)c12 :: 94.4
10. Cc1cccc2c(Nc3ccc(NS(C)(=O)=O)cc3)c3ccc([N+](=O)[O-])cc3nc12 :: 4.52
11. CC(C)(C)c1cc(C(=O)/C=C/c2ccn[nH]2)cc(C(C)(C)C)c1O :: 5.97

----------
- Test system: HCC-2998 colon
- Assay summary: NCI tumour cell line growth inhibition, 48 h
Where a SMILES comes first, the peptide text is derived from it. [ ]: non-standard residue; d: D form. The star is where a group is joined. ξ: configuration not given here. ξD = NC(CC(=O)O)C(=O)O; Ac3c = NC1(C(=O)O)CC1; Boc = CC(C)(C)OC(=O)*; OtBu = CC(C)(C)O*
Assign class by TGI: not lower than 20 µM means yes (1); lower than 20 µM means no (0).

1) CC1(C)CC2=C(Sc3ccccc3N2)C(=O)C1C(=O)C(=O)Nc1cc(Cl)ccc1Cl (configuration not stated) :: yes (1)
2) N#CC1(c2ccccc2)CCN(C2(c3ccccc3)CCCCC2)CC1 :: yes (1)
3) COc1cccc(C2C(C#N)=C(N)Oc3c2ccc2ccccc32)c1 (configuration not stated) :: no (0)
4) O=C(O)c1cc(Cl)cc2c1NC1(N2)C(=O)Nc2ccccc21 (configuration not stated) :: yes (1)
5) CC(NNC(=O)c1ccncc1)c1ccc(Cl)c(Cl)c1 (configuration not stated) :: yes (1)
6) COC(=O)/C(=C\c1ccco1)P(=O)(OC)OC :: yes (1)
7) O=C(N/C(=C\c1cc(Cl)ccc1Cl)c1nc2ccc(Cl)cc2[nH]1)c1ccccc1 :: yes (1)
8) O=C(CCc1nc(=S)[nH][nH]1)Nc1cccc(C(F)(F)F)c1 :: yes (1)
9) NNc1c2ccccc2nc2ccccc12 :: yes (1)
10) CSc1ncc2c(n1)-c1ccccc1OC2NC(C)(C)C (configuration not stated) :: yes (1)
11) O=C(NN1C(=O)CSC1c1ccc(F)cc1)C(O)c1ccccc1 (configuration not stated) :: yes (1)
12) O=C1CSC(c2ccccc2O)N1c1nnc(Cn2ccnc2)o1 (configuration not stated) :: yes (1)
13) COc1cc(OC)cc(-n2c(N)c(-c3nc4ccccc4n3C)c3ccc([N+](=O)[O-])cc3c2=O)c1 :: yes (1)
14) O=C(NCC(=O)N1CCOC1=O)OCc1ccccc1 :: yes (1)
15) CN(C)C(=O)C(F)(F)C(c1ccc(Br)cc1)C1C(=O)N(C)C(=O)N(C)C1=O (configuration not stated) :: yes (1)
16) CC(=O)Nc1ccc(C(=O)N2N=C(C)/C(=C/c3cccc([N+](=O)[O-])c3)C2=O)cc1 :: yes (1)
17) CC(=O)C12C[C@](C#N)(N3CCCCCC3)C1C=Cc1ccccc12 (some centres not stated) :: yes (1)
18) COC1=CC(=O)c2c(O)c3c(c(O)c2C1=O)C[C@](C)(O)C[C@@H]3O :: no (0)
19) Oc1c(Cl)cc(Cl)c2cccnc12 :: yes (1)
20) N#CC(C#N)=C(N)/C(C#N)=C/c1ccc2[nH]ccc2c1 :: yes (1)
21) C=C1C(=O)O[C@H]2[C@H]1CC/C(CNC(=O)/C=C/c1ccccc1)=C\CC[C@@]1(C)O[C@@H]21 :: no (0)
22) Cc1ccc(NC(=O)CC2SC(N)=NC2=O)cc1C (configuration not stated) :: yes (1)
23) NCCC(=O)NC(Cc1cnc[nH]1)C(=O)O (configuration not stated) :: yes (1)
24) Cc1oc2c(c1C(=O)N1CC[C@@H](N)C1)C(=O)c1c(c(O)c3ccccc3c1O)C2=O :: no (0)
25) COC(=O)C1(NC(=O)C(CC(=O)OC(C)(C)C)NC(=O)OC(C)(C)C)CC1 (configuration not stated) (Boc-[ξD](OtBu)-[Ac3c]-OMe) :: yes (1)

----------
- Tested on: HCT-116 colon
- Assay summary: NCI tumour cell line growth inhibition, 48 h
Measure: TGI

1) c1csc(-c2csc(-c3ccsc3)c2)c1 :: > 100 µM
2) CCn1c2ccc(O)c(C(=O)OC)c2c2cc3ccccc3c(O)c21 :: 29.2 µM
3) COC(=O)/C(=C\c1ccco1)P(=O)(OC)OC :: > 100 µM
4) Cc1nc2ccccc2c(=O)n1/N=C(\N=Nc1cccc(Cl)c1)c1ccccc1Cl :: > 100 µM
5) O=C1CCC2(O)C3Cc4ccc(Oc5nnnn5-c5ccccc5)c5c4C2(CCN3CC2CC2)C1O5 (stereo unspecified) :: > 100 µM
6) COc1cc(C2CC(=O)Nc3c2cc(Br)c2ccccc32)cc(Br)c1OC (stereo unspecified) :: 2.44 µM
7) NS(=O)(=O)c1cccc(-c2ccc3c(NC(=O)C4CC4)n[nH]c3c2)c1 :: > 25 µM
8) C[C@@H]1CC[C@@H](C)[C@](C)(CCc2ccoc2)C/C=C\C=C/1C(=O)O :: > 50 µM
9) O=C(COc1ccc(Cl)cc1)N1CCN(C(=O)COc2ccc(Cl)cc2)c2ccccc21 :: > 100 µM
10) COc1cc([C@H]2Oc3c(OC)cc(CCCO)cc3[C@@H]2CO)ccc1O :: > 100 µM
11) O=c1c(O)cccn1CCCN(CCCn1cccc(O)c1=O)CCn1cccc(O)c1=O :: > 100 µM
12) COc1cc(/C=N\NC(=O)C[N+](C)(C)C)cc(OC)c1OC :: > 10 µM
13) N#CC1(c2ccccc2)CCN(C2(c3ccccc3)CCCCC2)CC1 :: > 100 µM
14) CCN(CC)CCCC(C)Nc1c(-c2ccccc2)cnc2cc(Cl)ccc12 (stereo unspecified) :: 15.2 µM
15) COC1=CC(=O)c2c(O)c3c(c(O)c2C1=O)C[C@](C)(O)C[C@@H]3O :: 8.94 µM
16) CN(C)Cc1cc(C(=O)/C=C/c2cccc(Cl)c2)cc(CN(C)C)c1O :: 13.3 µM
17) OC(CCN1CCN(CCOC(c2ccccc2)c2ccccc2)CC1)c1ccc(Br)cc1 (stereo unspecified) :: 23.3 µM
18) Oc1ccc(Cl)cc1C1=N/C(=N\C/N=C2\N=C(c3cc(Cl)ccc3O)CC(c3ccccc3)N2)NC(c2ccccc2)C1 (stereo unspecified) :: > 100 µM
19) CC(=O)Nc1ccc(C(=O)NN2C(=O)C(Cl)C2c2ccc(O)cc2)cc1 (stereo unspecified) :: > 100 µM
20) O=C1c2ccccc2C(=O)N1C1(C(=O)NC2(C(=O)O)CCCC2)CCCC1 :: > 100 µM
21) O=C(O)COc1ccc(C(=O)/C(SS/C(C(=O)c2ccc(OCC(=O)O)c(Cl)c2Cl)=C2\C=C(c3ccc(Br)cc3)SS2)=C2/C=C(c3ccc(Br)cc3)SS2)c(Cl)c1Cl :: 22.1 µM
22) Cc1cccc2c(Nc3ccc(NS(C)(=O)=O)cc3)c3ccc([N+](=O)[O-])cc3nc12 :: 5.24 µM
23) S=C(N/N=C\c1ccccn1)N(Cc1ccccn1)Cc1ccccn1 :: 16.5 µM
24) CCOC1OC(=O)[C@H]2[C@@H]1[C@@H]1CC[C@H]2O1 (stereo partly specified) :: > 100 µM
25) CNC(=S)N/N=C(\C)c1nc2ncccc2[nH]1 :: > 100 µM
26) COc1cccc(CC(C)=C(c2ccc(OCCCN(C)C)cc2)c2ccc(OCCCN(C)C)cc2)c1 :: 0.839 µM
27) COC(=O)C#CCC1CCCC1C1SCCS1 (stereo unspecified) :: > 100 µM
28) O=C1/C(=C/c2cccc(Br)c2)COc2ccc(O)c(O)c21 :: 2.47 µM
29) CCC[CH2][Sn]([CH2]CCC)([O]C(=O)/C=C/c1ccccc1F)[O]C(=O)/C=C/c1ccccc1F :: 2.52 µM
30) COC(=O)C1=C(C)N(NC(=O)c2ccccc2)C2(O)CCCC(=O)C12C (stereo unspecified) :: > 100 µM
31) CC1(C)CC2=C(Sc3ccccc3N2)C(=O)C1C(=O)C(=O)Nc1cc(Cl)ccc1Cl (stereo unspecified) :: > 100 µM
32) Nc1n[nH]c(N)c1N=Nc1ccc(O)cc1 :: 89.9 µM
33) COc1cccc(C2C(C#N)=C(N)Oc3c2ccc2ccccc32)c1 (stereo unspecified) :: 3.42 µM
34) COc1ccc2c(c1OC)C(=O)O[C@@H]2[C@H]1c2cc3c(cc2CCN1C)OCO3 :: > 100 µM
35) C=CC(C)(C)c1cc([C@@H]2COc3cc(O)ccc3C2=O)c(O)c(O)c1OC :: 32.6 µM
36) COP(=O)(OC)C(NC=O)P(=O)(OC)OC :: > 100 µM
37) COc1ccc(/C(=N/Nc2nc3ccccc3[nH]2)C(=O)O)cc1 :: > 100 µM
38) CCN1C(=O)N(CC)C2C1NN=c1s/c(=C\c3ccc[nH]3)c(=O)n12 (stereo unspecified) :: > 100 µM
39) CN(C)C(=O)C(F)(F)C(c1ccc(Br)cc1)C1C(=O)N(C)C(=O)N(C)C1=O (stereo unspecified) :: > 100 µM
40) COc1cc(/C=C2\Cc3cc(OC)c(OC)cc3C2=O)cc(OC)c1 :: > 52.2 µM
41) O=C(N/N=C/c1ccc(Cl)cc1)c1cc(I)cc(I)c1O :: > 100 µM
